Data provenance: patent US8481678B2

Give measured O.D. at 450 nm for each item. Keep answers brief.
- test-name: Phage ELISA, polished enamel-binding assay
- Design: species or system bovine
- condition-label: phage ELISA on polished enamel, over 10^10 pfu phage; no-phage control 0.112
One number for each entry.

input-sequence	O.D. at 450 nm
THNMSHFPPSGHPKRTAT (Tooth-binding peptide) [BoEn P8]	2.02

Below is a list of sequences. For each, state its recorded O.D. at 450 nm.
1. NFCETQLDLSVCTV (Tooth-binding peptide) [BoEn P5]
2. GYCLRGDEPAVCSG (Tooth-binding peptide) [BoEn P3]
3. EPPTRTRVNNHTVTVQAQQH (Tooth-binding peptide) [BoEn P2]

Result:
1: 0.797; 2: 0.665; 3: 0.641

Problem: Query O.D. at 450 nm for NTCQPTKNATPCSA (Tooth-binding peptide) [BoEn P6]
Result: 0.83
